- testedSystem: Free fatty acid receptor 4 (Homo sapiens, UniProt Q5NUL3)
- Sequence (Q5NUL3 whole entry): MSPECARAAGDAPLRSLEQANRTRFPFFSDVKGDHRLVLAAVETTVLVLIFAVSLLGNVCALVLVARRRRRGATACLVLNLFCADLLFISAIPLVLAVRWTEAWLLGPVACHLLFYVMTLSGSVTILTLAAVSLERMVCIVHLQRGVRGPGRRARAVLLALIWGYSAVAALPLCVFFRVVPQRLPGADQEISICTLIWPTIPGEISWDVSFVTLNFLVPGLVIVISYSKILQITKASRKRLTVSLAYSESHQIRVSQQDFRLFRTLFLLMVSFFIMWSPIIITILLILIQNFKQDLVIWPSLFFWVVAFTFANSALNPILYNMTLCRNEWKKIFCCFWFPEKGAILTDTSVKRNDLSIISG
- assay: GPR120 pERK assay: For the pERK assay, 3×10^6 cells/mL cryopreserved human and mouse cells were thawed rapidly in a 37° C. water bath and added to a T-225 flask containing 50 mL growth medium. The flasks were placed in a tissue culture incubator overnight (37° C., 5% CO2). The next day, cells were harvested with trypsin (Gibco Cat. #25300-054), resuspended in serum-containing growth medium and counted using a Cellometer and volume adjusted to a concentration of 0.5×10^6 cells/mL. Cells were plated into 384-well clear bottom tissue culture plates (BD Cat. #353962) at 50 μL/well, for a density of 25,000 cells/well using a MULTIDROP® and incubated for 16-18 hours (overnight) at 37° C. with 5% CO2. The next day, cells were washed once with 50 μL of PBS without Ca++/Mg++ (Gibco Cat. #14190-036) and serum starved in 25 μL of F-12 media without any serum or antibiotics for 2 hours at 37° C.Test compounds were 3-fold, 11-point serially diluted in DMSO in a REMP assay plate (Matrix Cat. #4307) by Tecan and 5 μL was transferred into an ECHO source plate (Labcyte Cat. #LC-0200). Cells were then stimulated with 40 nL of compound dilutions using ECHO liquid handler for 7 min at 37° C. Compounds ranged from final assay concentrations of 32 μM to 0.54 nM.The media was then dumped and cells lysed with 20 μL of 1× Lysis buffer from the AlphaScreen SureFire Phospho-ERK 1/2 Kit (Perkin Elmer Cat. #6760617M). The lysis buffer was diluted 5-fold with water before use. The plate was agitated on a shaker for 10 min after which 2 μL was transferred into a 384-well white proxiplate (Perkin Elmer Cat. #6008289). The SureFire assay reagent mix was prepared by mixing 60 parts Reaction Buffer, 10 parts Activation Buffer, 1 part Donor Beads, 1 part Acceptor Beads (Perkin Elmer Cat. #TGRES10K). 3.5 μL/well of this reagent mix was manually added to the proxiplate with a multichannel pipettor. Plates were spun down at 1000 rpm for 2 min, followed by light-protected incubation at room temperature for 2 hours. The plates were read on the Alpha-technology compatible Envision multilabel plate reader using AlphaScreen protocol according to manufacturer's specifications. The agonist effect of compounds was expressed as 100×(average sample-average blank)/(average total-average blank) where sample is the luminescence activity in the presence of test compound, blank is equal to the luminescence activity in the presence of DMSO control and the total is signal induced by 50 μM linolenic acid as reference compound.Activation data for the test compound over a range of concentrations was plotted as percentage activation of the test compound (100%=maximum response). After correcting for background, EC50 values were determined. The EC50 is defined as the concentration of test compound which produces 50% of the maximal response and was quantified using the 4 parameter logistic equation to fit the data.
measureName: EC50 (µM)
Numbers only, in µM.

| molecule | EC50 / µM |
| --- | --- |
| O=C(O)C1CC1COc1ccc(-c2cccc(-c3ccccc3)c2)cc1 (configuration not stated) | 1.7 |

Ask: Determine from records and report EC50 for O=C(O)C1CC1COc1ccc(-c2ccccc2-c2ccccc2)cc1 (configuration not stated)
Result: 6.84
